target: human CD33 Q24N (human, UniProt P20138 18-364); experiment: flow cytometry, mutant on cells, IgG
Sequence (P20138 18-364 Q24N limits assumed): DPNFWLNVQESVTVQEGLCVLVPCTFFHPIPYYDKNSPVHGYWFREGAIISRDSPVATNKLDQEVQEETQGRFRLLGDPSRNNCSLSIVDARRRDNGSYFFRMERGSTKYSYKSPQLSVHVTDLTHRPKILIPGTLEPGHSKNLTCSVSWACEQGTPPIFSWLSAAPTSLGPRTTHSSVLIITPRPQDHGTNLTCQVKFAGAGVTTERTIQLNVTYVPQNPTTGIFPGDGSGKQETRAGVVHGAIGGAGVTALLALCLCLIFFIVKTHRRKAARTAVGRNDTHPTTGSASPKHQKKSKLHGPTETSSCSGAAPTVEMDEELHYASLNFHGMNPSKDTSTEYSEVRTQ
Recorded metric: Mean % WT Binding (% WT binding)
Answers are plain numbers, in % WT binding.

Below: 3 binders and their reported Mean % WT Binding.
Refmab #1 (antibody, human IgG1, V domains shown, Tested in IgG format; human IgG1 (Absolute Antibody hP67.6, Cat. No. Ab00283-10.0); also called hP67.6) VH: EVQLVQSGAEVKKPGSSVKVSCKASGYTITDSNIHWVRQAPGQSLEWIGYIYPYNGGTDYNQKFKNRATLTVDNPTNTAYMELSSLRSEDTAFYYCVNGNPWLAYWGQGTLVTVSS VL: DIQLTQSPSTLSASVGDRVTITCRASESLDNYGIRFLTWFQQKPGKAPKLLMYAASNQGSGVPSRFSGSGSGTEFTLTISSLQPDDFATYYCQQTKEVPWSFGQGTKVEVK = 86.5
Refmab #2 (antibody, human IgG1, V domains shown, Tested in IgG format; human IgG1 Fc silent (PG-LALA)) VH: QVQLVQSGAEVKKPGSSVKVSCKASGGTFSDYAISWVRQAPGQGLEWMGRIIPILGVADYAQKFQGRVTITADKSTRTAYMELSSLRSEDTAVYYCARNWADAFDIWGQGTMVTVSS VL: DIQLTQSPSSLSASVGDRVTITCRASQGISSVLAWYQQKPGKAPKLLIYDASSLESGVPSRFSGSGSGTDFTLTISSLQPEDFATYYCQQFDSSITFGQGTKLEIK = 117
Refmab #4 (antibody, human IgG1, V domains shown, Tested in IgG format; human IgG1 Fc silent (PG-LALA)) VH: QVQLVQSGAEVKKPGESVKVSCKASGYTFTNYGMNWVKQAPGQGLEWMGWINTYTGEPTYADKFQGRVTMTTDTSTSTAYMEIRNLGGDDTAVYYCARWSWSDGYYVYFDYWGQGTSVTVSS VL: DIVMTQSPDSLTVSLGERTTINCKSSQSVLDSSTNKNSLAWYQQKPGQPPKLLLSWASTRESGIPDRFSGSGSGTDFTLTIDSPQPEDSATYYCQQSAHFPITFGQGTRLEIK = 107

I am curious: what Mean % WT Binding value has been reported for Refmab #3 (antibody, human IgG1, V domains shown, Tested in IgG format; human IgG1 Fc silent (PG-LALA)) VH: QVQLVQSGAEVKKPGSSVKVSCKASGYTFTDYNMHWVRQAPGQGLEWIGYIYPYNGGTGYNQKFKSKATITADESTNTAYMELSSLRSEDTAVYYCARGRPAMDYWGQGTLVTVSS VL: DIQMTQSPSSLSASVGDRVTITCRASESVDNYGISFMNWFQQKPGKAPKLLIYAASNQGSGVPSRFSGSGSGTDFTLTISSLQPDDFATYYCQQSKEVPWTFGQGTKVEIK ?
35.3

Data origin: patent US20260242735A1
